Source of measurements: patent US20070093483A1

# system.name: human MPO (Homo sapiens)
# Sequence (P05164 49-745): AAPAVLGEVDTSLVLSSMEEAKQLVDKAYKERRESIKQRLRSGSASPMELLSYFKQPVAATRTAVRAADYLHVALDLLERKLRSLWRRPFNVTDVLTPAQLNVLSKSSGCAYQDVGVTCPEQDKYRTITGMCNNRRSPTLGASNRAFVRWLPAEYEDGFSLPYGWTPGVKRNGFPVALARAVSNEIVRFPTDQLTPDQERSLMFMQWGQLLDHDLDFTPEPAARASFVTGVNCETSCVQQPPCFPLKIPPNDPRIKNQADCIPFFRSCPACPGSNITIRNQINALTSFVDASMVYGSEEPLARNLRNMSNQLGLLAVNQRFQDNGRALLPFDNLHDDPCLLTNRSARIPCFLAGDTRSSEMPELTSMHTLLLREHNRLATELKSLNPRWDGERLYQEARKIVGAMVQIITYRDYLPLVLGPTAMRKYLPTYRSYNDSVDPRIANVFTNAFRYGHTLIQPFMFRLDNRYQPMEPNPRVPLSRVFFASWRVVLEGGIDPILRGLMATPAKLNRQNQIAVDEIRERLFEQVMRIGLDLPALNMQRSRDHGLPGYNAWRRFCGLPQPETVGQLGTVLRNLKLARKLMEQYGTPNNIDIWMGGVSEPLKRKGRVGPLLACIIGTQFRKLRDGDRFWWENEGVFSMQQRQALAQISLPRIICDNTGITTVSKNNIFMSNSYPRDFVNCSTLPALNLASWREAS
# run.description: MPO inhibition screen (TMB oxidation, absorbance), with or without added tyrosine
# Format: biochemical
# run.parameters: in the presence of tyrosine (final 8 uM); human MPO 2.5 nM; H2O2 100 μM; pH 6.5
Recorded IC50 values for a group of compounds are listed next.
metric.name: IC50 (µM)

>>> print(df.to_string())
                                   compound               system_name  numeric_result
0  COc1ccc(OCc2n[nH]c(=S)n2CC2CCCO2)cc1 (stereo not shown)  human MPO (Homo sapiens)            11.3
1  Cc1ccccc1-n1c(Cc2c[nH]c3ccccc23)n[nH]c1=S  human MPO (Homo sapiens)             7.2
2  OCC(c1ccccc1)c1n[nH]c(=S)n1-c1ccccc1 (stereo not shown)  human MPO (Homo sapiens)            23.6
3     Fc1ccc(-n2c(Cc3ccccc3Cl)n[nH]c2=S)cc1  human MPO (Homo sapiens)             3.9
